Data provenance: patent US12528819B2

ASSAYED SYSTEM: α5β2γ2 subtype GABAAR (Homo sapiens, UniProt P18507+P31644)
Construct: expressed in transfected cells
Sequence (P47870 25-512 partner limits assumed, one chain of several): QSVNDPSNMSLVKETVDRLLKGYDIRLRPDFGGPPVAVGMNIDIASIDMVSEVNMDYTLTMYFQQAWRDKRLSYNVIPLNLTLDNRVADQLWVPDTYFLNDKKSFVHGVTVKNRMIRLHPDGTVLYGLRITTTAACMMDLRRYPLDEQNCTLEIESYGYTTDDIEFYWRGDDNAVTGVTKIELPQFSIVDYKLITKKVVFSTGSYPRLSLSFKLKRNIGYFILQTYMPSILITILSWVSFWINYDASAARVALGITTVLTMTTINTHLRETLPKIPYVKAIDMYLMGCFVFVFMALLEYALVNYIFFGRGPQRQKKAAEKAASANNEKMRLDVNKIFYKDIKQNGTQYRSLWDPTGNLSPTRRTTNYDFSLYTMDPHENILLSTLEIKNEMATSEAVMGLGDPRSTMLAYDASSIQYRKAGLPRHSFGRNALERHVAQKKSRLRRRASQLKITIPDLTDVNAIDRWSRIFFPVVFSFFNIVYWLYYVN
ASSAY PROCEDURE: Positive allosteric modulator activity: potentiation of EC20 GABA current in oocytes
Format: cell-based
TEST SETTINGS: read-out: GABA α5 Functional Data (potentiation), @ 100 nM, reported as ranges
Recorded activation at 0.1 µM for the following molecules

In the examples that follow, each entry is paired with its recorded activation at 0.1 µM.
MOLECULE	activation at 0.1 µM
COCc1nnc2n1Cc1c(C#CCc3ccccc3)ncn1-c1ccc(Cl)cc1-2	20 to 50%
Cc1nc(-c2ncn3c2Cn2c(COc4ccccc4)nnc2-c2cc(F)ccc2-3)no1	20 to 50%
COc1ccc(C#Cc2ncn3c2Cc2cnnn2-c2cc(OC)ccc2-3)cc1	20 to 50%
C#Cc1ccc2c(c1)-c1nnc(COC)n1Cc1c(-c3nc(-c4ccccc4)co3)ncn1-2	5 to 20%

Request: Given the molecule Cc1nc(-c2ncn3c2Cc2c(C)nnn2-c2cc(F)ccc2-3)no1 , what is its reported activation at 0.1 µM?
Result: > 50%

Request: Requested read-out: activation at 0.1 µM. Entry: CC(C)c1nc(-c2ncn3c2Cn2c(COc4cccc(F)c4)nnc2-c2cc(F)ccc2-3)no1
Result: 20 to 50%

Request: Which activation at 0.1 µM value belongs to COc1ccc2c(c1)-c1nnc(COc3cccc4ccccc34)n1Cc1c(-c3noc(C(C)C)n3)ncn1-2 ?
Result: > 50%

Request: // lookup activation at 0.1 µM for COCc1nnc2n1Cc1c(C3=NC(c4ccccc4)CO3)ncn1-c1ccc(Cl)cc1-2 (centres unmarked)
Result: 5 to 20%

---

# activation at 0.1 µM listing for each entry below
ASSAYED SYSTEM: α5β2γ2 subtype GABAAR (Homo sapiens, UniProt P18507+P31644)
Construct: expressed in transfected cells
ASSAY PROCEDURE: Positive allosteric modulator activity: potentiation of EC20 GABA current in oocytes
Format: cell-based
TEST SETTINGS: read-out: GABA α5 Functional Data (potentiation), @ 100 nM, reported as ranges
Method: (B) Positive Allosteric Modulator Activity of Test Compounds on α5β2γ2 Subtype GABAAR On day 1, 1 ng/32 nL of GABAA α5β2γ2 cDNA was injected into one oocyte. Test starts on day 2. The cDNA injected to the oocytes was a mix of alpha, beta and gamma, their ratio is 1:1:10 (by weight) and the total weight of the mixed 3 subunits to be injected in one oocyte was 1 ng in 32 nl volume. The injected oocytes can also be tested on day 3. […]

STRUCTURE SMILES	EXPERIMENTAL RESULT
COCc1nnc2n1Cc1c(C3=N[C@@H](c4ccccc4OC)CO3)ncn1-c1ccc(Cl)cc1-2	5 to 20%

Request: Value lookup for activation at 0.1 µM; key = COc1ccc2c(c1)-n1nnc(COc3cccc(Br)c3)c1Cc1c(C#N)ncn1-2
Result: 20 to 50%

Request: Look up activation at 0.1 µM: CCOC(=O)c1ncn2c1Cc1c(COc3ccccc3)nnn1-c1cc(OC)ccc1-2
Result: 20 to 50%

Request: # input molecule: COc1ccc2c(c1)-c1nnc(COc3ccc(F)cc3)n1Cc1c(-c3noc(C)n3)ncn1-2 ; wanted: its activation at 0.1 µM
Result: 20 to 50%

Request: Quick one: activation at 0.1 µM of C#Cc1ncn2c1Cn1c(COc3cccnc3)nnc1-c1cc(OC)ccc1-2 ?
Result: 5 to 20%

Request: Requested field: activation at 0.1 µM. Item: COCc1nnc2n1Cc1c(-c3nc(-c4ccccc4F)co3)ncn1-c1ccc(Cl)cc1-2
Result: 20 to 50%

---

Here, each record is paired with measured Ki data.
ASSAYED SYSTEM: α5β3γ2 GABAA receptors (Homo sapiens, UniProt P18507+P31644)
Construct: membranes
Sequence (P31644 32-462): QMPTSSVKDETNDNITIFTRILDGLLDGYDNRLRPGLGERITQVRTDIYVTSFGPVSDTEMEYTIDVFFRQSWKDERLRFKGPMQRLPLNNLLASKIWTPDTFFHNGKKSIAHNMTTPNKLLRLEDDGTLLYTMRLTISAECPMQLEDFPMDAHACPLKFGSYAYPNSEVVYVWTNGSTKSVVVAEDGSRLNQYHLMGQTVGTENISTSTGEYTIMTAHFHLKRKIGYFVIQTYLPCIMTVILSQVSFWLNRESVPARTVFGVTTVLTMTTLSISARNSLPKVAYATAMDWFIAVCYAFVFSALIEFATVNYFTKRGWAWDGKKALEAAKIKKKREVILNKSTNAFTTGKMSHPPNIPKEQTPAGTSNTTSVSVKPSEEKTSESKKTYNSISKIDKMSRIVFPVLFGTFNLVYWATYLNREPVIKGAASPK
Sequence (P28472 26-473 partner): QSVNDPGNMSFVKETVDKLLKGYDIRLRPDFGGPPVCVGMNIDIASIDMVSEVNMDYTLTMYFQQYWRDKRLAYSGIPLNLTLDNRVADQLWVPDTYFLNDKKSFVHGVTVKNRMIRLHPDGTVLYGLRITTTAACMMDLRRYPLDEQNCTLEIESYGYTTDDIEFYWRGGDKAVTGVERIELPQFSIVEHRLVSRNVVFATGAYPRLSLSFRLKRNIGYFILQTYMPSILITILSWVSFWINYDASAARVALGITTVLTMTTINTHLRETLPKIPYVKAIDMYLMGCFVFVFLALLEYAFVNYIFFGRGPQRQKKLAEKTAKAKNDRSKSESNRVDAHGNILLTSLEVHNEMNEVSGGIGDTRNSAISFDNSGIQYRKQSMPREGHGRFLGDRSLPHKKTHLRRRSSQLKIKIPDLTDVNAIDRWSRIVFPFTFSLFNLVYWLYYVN
Sequence (P18507 40-467 limits assumed): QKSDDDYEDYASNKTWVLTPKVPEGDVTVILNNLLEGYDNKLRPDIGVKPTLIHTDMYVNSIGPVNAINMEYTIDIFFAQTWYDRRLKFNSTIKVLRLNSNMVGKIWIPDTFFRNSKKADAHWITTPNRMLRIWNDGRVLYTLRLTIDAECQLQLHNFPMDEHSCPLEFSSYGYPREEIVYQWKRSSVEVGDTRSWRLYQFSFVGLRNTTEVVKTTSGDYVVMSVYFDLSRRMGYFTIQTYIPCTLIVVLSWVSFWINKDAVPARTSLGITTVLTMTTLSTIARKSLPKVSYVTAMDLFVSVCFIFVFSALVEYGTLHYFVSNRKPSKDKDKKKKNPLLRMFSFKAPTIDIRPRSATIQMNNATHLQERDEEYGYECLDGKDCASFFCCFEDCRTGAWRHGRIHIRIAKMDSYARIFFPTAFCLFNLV
ASSAY PROCEDURE: Binding activity of test compounds on GABAAR: inhibition of [3H]Ro15-1788 binding, membranes of Ltk cells

MOLECULE	Ki
COC1C=C2C(=CC1)n1cnc(-c3noc(C(C)C)n3)c1Cn1c(COc3ccccc3Cl)nnc12 (centres unmarked)	< 100 nM

Turning now to a further molecule:
Request: Data request, read-out Ki, for C#Cc1ccc2c(c1)-n1nnc(COC)c1Cc1c(C3=N[C@@H](C(C)C)CO3)ncn1-2
Result: 100 to 1000 nM

---

ASSAYED SYSTEM: α5β2γ2 subtype GABAAR (Homo sapiens, UniProt P18507+P31644)
Construct: expressed in transfected cells
ASSAY PROCEDURE: Positive allosteric modulator activity: potentiation of EC20 GABA current in oocytes
Assay type: cell-based
TEST SETTINGS: read-out: GABA α5 Functional Data (potentiation), @ 100 nM, reported as ranges
OBSERVABLE: activation at 0.1 µM

// solved cases for activation at 0.1 µM follow
MOLECULE	ASSAYED SYSTEM	activation at 0.1 µM
COc1ccc(C#Cc2ncn3c2Cc2cnnn2-c2cc(Cl)ccc2-3)cc1	α5β2γ2 subtype GABAAR (Homo sapiens, UniProt P18507+P31644)	20 to 50%
COCc1nnc2n1Cc1c(C3=N[C@@H](c4ccc(Cl)cc4)CO3)ncn1-c1ccc(Cl)cc1-2	α5β2γ2 subtype GABAAR (Homo sapiens, UniProt P18507+P31644)	20 to 50%
Cc1noc(-c2ncn3c2Cc2c(Cc4ccccc4)nnn2-c2cc(F)ccc2-3)n1	α5β2γ2 subtype GABAAR (Homo sapiens, UniProt P18507+P31644)	20 to 50%
CCOCc1nnc2n1Cc1c(C3=N[C@@H](c4ccc(F)cc4)CO3)ncn1-c1ccc(Cl)cc1-2	α5β2γ2 subtype GABAAR (Homo sapiens, UniProt P18507+P31644)	20 to 50%

Request: Lab request: please report activation at 0.1 µM under test system α5β2γ2 subtype GABAAR (Homo sapiens, UniProt P18507+P31644) for CCOC(=O)c1ncn2c1Cc1c(CN3CCCC3)nnn1-c1cc(OC)ccc1-2
Result: 20 to 50%

Request: What reported activation at 0.1 µM corresponds to COCc1nnc2n1Cc1c(Br)ncn1-c1ccc(Cl)cc1-2 on α5β2γ2 subtype GABAAR (Homo sapiens, UniProt P18507+P31644)?
Result: 5 to 20%

Request: # value lookup — system α5β2γ2 subtype GABAAR (Homo sapiens, UniProt P18507+P31644), readout activation at 0.1 µM, item CCOCc1ncn2c1Cn1c(COC)nnc1-c1cc(Cl)ccc1-2
Result: 5 to 20%

Request: Query for α5β2γ2 subtype GABAAR (Homo sapiens, UniProt P18507+P31644): what activation at 0.1 µM does the record show for COCc1nnc2n1Cc1c(C3=NC(C)CO3)ncn1-c1ccc(Cl)cc1-2 (centres unmarked) ?
Result: 20 to 50%

---

Here the recorded activation at 0.1 µM is given for each entry.
ASSAYED SYSTEM: α5β2γ2 subtype GABAAR (Homo sapiens, UniProt P18507+P31644)
Construct: expressed in transfected cells
ASSAY PROCEDURE: Positive allosteric modulator activity: potentiation of EC20 GABA current in oocytes
Format: cell-based
TEST SETTINGS: read-out: GABA α5 Functional Data (potentiation), @ 100 nM, reported as ranges

Examples with their reported activation at 0.1 µM follow.
STRUCTURE SMILES	ASSAYED SYSTEM	activation at 0.1 µM
CCOC(=O)c1ncn2c1Cc1c(CN(C)Cc3ccccc3)nnn1-c1cc(OC)ccc1-2	α5β2γ2 subtype GABAAR (Homo sapiens, UniProt P18507+P31644)	5 to 20%
CC(C)C#Cc1ccc2c(c1)-n1nncc1Cc1c(Br)ncn1-2	α5β2γ2 subtype GABAAR (Homo sapiens, UniProt P18507+P31644)	5 to 20%
COc1ccc2c(c1)-c1nnc(COCc3cccnc3)n1Cc1c(-c3noc(C(C)C)n3)ncn1-2	α5β2γ2 subtype GABAAR (Homo sapiens, UniProt P18507+P31644)	20 to 50%

Please examine the following record next.
Request: Look up activation at 0.1 µM: COc1ccc2c(c1)-c1nnc(COc3cccnc3)n1Cc1c(-c3noc(C(C)C)n3)ncn1-2
Result: > 50%

---

ASSAYED SYSTEM: α5β2γ2 subtype GABAAR (Homo sapiens, UniProt P18507+P31644)
Construct: expressed in transfected cells
ASSAY PROCEDURE: Positive allosteric modulator activity: potentiation of EC20 GABA current in oocytes
Type: cell-based
TEST SETTINGS: read-out: GABA α5 Functional Data (potentiation), @ 100 nM, reported as ranges
OBSERVABLE: activation at 0.1 µM

Guide cases for activation at 0.1 µM, answers given:
COMPOUND	EXPERIMENTAL RESULT
COc1ccc2c(c1)-n1nnc(COc3ccccc3)c1Cc1c(C#N)ncn1-2 [Compound 224]	20 to 50%
Cc1noc(-c2ncn3c2Cc2c(C)nnn2-c2cc(F)ccc2-3)n1 [Compound 110]	20 to 50%
COCc1nnc2n1Cc1c(C3=N[C@@H](c4ccccc4C)CO3)ncn1-c1ccc(Cl)cc1-2 [Compound 330]	20 to 50%
COCc1nnc2n1Cc1c(-c3noc(C)n3)ncn1-c1ccc(OC)cc1-2 [Compound 164]	5 to 20%
COCc1nnc2n1Cc1c(C#Cc3ccccc3)ncn1-c1ccc(Cl)cc1-2 [Compound 285]	5 to 20%
CCOCc1nnc2n1Cc1c(-c3ncco3)ncn1-c1ccc(Cl)cc1-2 [Compound 341]	5 to 20%

Request: activation at 0.1 µM for COc1ccc2c(c1)-n1nncc1Cc1c(C3=N[C@@H](c4ccc(F)cc4)CO3)ncn1-2 [Compound 367] ?
Result: 5 to 20%

Request: What measured activation at 0.1 µM goes with COc1ccc2c(c1)-n1nnc(Cc3ccc(F)cc3)c1Cc1c(Br)ncn1-2 [Compound 213] ?
Result: 20 to 50%

Request: Entry COc1ccc2c(c1)-n1nncc1Cc1c(C3=N[C@H](c4ccccc4)CO3)ncn1-2 [Compound 290] : reported activation at 0.1 µM = ?
Result: 20 to 50%

Request: Query (compound): CC(C)OCc1nnc2n1Cc1c(C3=N[C@@H](c4ccc(F)cc4)CO3)ncn1-c1ccc(Cl)cc1-2 [Compound 326] ; field requested: activation at 0.1 µM
Result: 20 to 50%

Request: Item N#Cc1ncn2c1Cc1c(COc3cccc(F)c3)nnn1-c1cc(Cl)ccc1-2 [Compound 227] has what recorded activation at 0.1 µM?
Result: 5 to 20%

Request: Find the recorded activation at 0.1 µM belonging to C#Cc1ncn2c1Cn1c(COc3ccccc3)nnc1-c1cc(OC)ccc1-2 [Compound 236] and report it.
Result: 5 to 20%
